These entries and their values trace back to patent US20050059669A1.

Target Of Assay: GP IIb/IIIa (Homo sapiens, UniProt P05106+P08514)
Sequence (P08514 32-887 limits assumed): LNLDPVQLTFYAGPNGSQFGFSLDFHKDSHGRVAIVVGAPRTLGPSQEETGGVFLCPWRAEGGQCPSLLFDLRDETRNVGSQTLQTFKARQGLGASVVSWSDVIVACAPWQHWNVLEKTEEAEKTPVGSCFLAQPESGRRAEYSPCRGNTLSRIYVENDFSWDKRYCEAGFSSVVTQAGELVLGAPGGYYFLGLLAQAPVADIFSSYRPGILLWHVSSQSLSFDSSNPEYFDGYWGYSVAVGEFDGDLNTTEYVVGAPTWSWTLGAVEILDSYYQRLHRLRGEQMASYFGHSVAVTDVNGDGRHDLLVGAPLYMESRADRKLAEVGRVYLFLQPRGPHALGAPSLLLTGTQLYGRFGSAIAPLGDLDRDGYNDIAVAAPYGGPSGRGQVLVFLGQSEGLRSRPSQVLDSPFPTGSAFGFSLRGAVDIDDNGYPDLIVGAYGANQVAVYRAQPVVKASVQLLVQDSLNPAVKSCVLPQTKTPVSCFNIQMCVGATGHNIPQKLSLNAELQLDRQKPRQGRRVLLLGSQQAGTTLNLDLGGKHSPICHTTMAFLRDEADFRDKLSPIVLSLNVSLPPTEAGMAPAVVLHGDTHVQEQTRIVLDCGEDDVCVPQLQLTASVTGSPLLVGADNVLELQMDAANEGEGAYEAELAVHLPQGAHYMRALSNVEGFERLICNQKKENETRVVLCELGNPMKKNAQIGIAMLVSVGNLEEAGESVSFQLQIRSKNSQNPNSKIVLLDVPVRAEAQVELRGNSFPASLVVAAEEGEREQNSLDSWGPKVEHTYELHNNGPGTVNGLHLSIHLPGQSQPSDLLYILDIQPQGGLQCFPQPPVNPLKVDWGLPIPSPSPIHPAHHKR
Sequence (P08514 891-1039 partner limits assumed): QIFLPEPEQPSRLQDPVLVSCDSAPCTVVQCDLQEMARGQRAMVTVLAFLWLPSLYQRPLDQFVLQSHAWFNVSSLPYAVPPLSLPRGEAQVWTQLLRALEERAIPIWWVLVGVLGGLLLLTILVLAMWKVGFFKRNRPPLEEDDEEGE
Sequence (P05106 27-788): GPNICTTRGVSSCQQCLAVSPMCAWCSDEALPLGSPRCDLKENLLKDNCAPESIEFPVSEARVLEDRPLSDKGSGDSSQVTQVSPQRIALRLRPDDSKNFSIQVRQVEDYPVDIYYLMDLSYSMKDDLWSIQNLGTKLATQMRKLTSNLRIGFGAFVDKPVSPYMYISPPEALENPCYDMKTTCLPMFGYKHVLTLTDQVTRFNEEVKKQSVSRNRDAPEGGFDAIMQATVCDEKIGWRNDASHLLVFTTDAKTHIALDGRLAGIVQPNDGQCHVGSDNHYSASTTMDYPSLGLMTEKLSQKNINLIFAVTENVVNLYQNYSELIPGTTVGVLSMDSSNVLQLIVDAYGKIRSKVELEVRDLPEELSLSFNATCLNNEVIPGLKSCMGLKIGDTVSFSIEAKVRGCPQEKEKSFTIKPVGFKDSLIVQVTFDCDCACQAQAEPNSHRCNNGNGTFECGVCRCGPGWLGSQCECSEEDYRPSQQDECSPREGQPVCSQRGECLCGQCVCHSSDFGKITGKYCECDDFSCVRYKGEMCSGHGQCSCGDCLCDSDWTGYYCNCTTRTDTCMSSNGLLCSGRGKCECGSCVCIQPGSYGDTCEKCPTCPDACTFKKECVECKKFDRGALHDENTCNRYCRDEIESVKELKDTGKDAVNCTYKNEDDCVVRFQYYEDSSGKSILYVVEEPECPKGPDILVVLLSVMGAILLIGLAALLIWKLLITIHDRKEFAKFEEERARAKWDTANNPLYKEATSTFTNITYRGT
Assay Notes: GP IIb/IIIa antagonistic activity (method of Pharmacological Test 2 in WO 94/21599)
Description: GP IIb/IIIa antagonistic activity was measured for the compounds according to the present invention. The measurement of the GP IIb/IIIa antagonistic activity was carried out according to the method described in Pharmacological Test 2 in WO 94/21599. As a result, both the compounds prepared in Examples 3 and 6 had significant GP IIb/IIIa antagonistic activity. In particular, the IC50 value of the compound prepared in Example 3 was 2.0 nM.
Value Kind: IC50 (nM)
Reply numerically in nM, unit not repeated.

**Q:** Any idea what IC50 was measured for O=C(NC[C@H](NS(=O)(=O)c1ccccc1)C(=O)O)c1cccc(N2CCN(C3=NCCCN3)CC2)c1 [Example 3] ?
**A:** 2
